We begin with a simple list: items and their reported Ki.
- systemName: human orexin 1 receptor (Homo sapiens (Human))
- Sequence (O43613 whole entry): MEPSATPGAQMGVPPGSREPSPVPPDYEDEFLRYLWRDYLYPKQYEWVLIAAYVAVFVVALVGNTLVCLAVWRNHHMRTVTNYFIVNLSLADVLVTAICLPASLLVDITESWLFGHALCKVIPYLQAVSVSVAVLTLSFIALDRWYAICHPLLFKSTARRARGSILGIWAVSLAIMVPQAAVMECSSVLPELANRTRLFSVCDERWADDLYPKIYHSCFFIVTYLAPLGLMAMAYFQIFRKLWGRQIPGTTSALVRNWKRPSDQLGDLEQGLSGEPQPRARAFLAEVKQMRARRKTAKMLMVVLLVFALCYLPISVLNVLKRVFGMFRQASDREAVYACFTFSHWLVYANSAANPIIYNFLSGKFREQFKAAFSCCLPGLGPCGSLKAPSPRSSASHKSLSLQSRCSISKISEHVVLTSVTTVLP
- methodDescription: Human orexin 1 receptor radioligand binding ([3H]-SB674042 competition)
- measurementContext: read-out: OR-1 Ki
Give the value, in units of µM, as a plain number.

{"columns": ["compound", "systemName", "valueObserved"],
 "data": [
  ["Cc1cnc(N2C[C@@H]3CCN(C(=O)c4cccc(F)c4-n4nccn4)C[C@@H]32)cn1 [Example 103]", "human orexin 1 receptor (Homo sapiens (Human))", 10]
]}

Shifting focus to the compound that follows.
Challenge: # input compound: Cc1cncc(N2C[C@@H]3CCN(C(=O)c4ccc(F)cc4-n4nccn4)C[C@@H]32)n1 [Example 114] ; wanted: its Ki
Response given: 10

----------
- systemName: human orexin 1 receptor (Homo sapiens (Human))
- methodDescription: Human orexin 1 receptor radioligand binding ([3H]-SB674042 competition)
- measurementContext: CHO cells stably expressing human orexin 1 receptor; [3H]-SB674042 4 nM final; read-out: OR-1 Ki
outcomeMeasure: pKi
# reply with the number alone; pKi is -log10 of concentration in mol/L

These recorded examples may help you get a feel for the data.
{"columns": ["compound", "pKi"],
 "data": [
  ["Cc1cc(C)nc(N2C[C@@H]3CCN(C(=O)c4cnoc4-c4ccccc4)C[C@@H]32)n1", 5.00],
  ["Cc1cc(C)nc(N2C[C@@H]3CCN(C(=O)c4ccccc4-c4ccccc4)C[C@@H]32)n1", 6.77],
  ["Cc1ccc(C)c(S(=O)(=O)N2CCC3CN(c4cnc5ccccc5n4)C3C2)c1 (stereo not drawn)", 5.92],
  ["Cc1cc(C)nc(N2C[C@@H]3CCN(C(=O)c4cc(F)ccc4-n4nccn4)C[C@@H]32)c1", 5.99],
  ["Cc1cc(C)nc(N2C[C@@H]3CCN(C(=O)c4cccc(F)c4-n4cccn4)C[C@@H]32)n1", 5.82]
]}

Challenge: Please look up its pKi: Cc1cc(C)nc(N2C[C@@H]3CCN(C(=O)c4cccc(F)c4-c4ncccn4)C[C@@H]32)n1
Response given: 6.22

Challenge: Any idea what pKi was measured for Cc1cc(C)nc(N2C[C@@H]3CCN(C(=O)c4c(C)noc4-c4snnc4C)C[C@@H]32)n1 ?
Response given: 5.00

Challenge: Which pKi is reported for this compound? O=C(c1ccccc1-c1cccs1)N1C[C@@H]2CN(c3nccc(-c4ccccc4)n3)[C@@H]2C1 (single isomer, unassigned)
Response given: 6.56

Challenge: Could you share which pKi value was measured for O=C(c1cc(F)ccc1-n1nccn1)N1CC[C@H]2CN(c3cc(NC4CC4)ncn3)[C@H]2C1 ?
Response given: 5.00

Challenge: Entry under review: Cc1cc(N2C[C@@H]3CCN(C(=O)c4cc(F)ccc4-n4nccn4)C[C@@H]32)nc(N)n1 . Reported pKi?
Response given: 5.00

Challenge: Fill in: pKi of Cc1cnc(N2C[C@@H]3CCN(C(=O)c4ccccc4-n4nccn4)C[C@@H]32)cn1 is ___
Response given: 5.06

Challenge: # get_value(readout='pKi', item= Cc1cc(C)nc(N2C[C@@H]3CCN(C(=O)c4ccc(F)cc4-n4nccn4)C[C@@H]32)n1 )
Response given: 6.01

Challenge: Fill in the blank: the reported pKi of O=C(c1ccccc1-c1ccccc1)N1CCC2CN(c3nc4ccccc4o3)C2C1 (stereo not drawn) is ____.
Response given: 6.84

Challenge: # get_value(readout='pKi', item= O=C(c1ccc(F)cc1-n1nccn1)N1CC[C@H]2CN(c3cnc4ccccc4n3)[C@H]2C1 )
Response given: 6.75

Challenge: Report pKi for Cc1cc(C)nc(N2C[C@@H]3CCN(C(=O)c4ncoc4-c4cccc(Cl)c4)C[C@@H]32)n1 please.
Response given: 5.15

----------
- systemName: human orexin-2 receptor (Homo sapiens (Human), UniProt O43614)
- Sequence (O43614 whole entry): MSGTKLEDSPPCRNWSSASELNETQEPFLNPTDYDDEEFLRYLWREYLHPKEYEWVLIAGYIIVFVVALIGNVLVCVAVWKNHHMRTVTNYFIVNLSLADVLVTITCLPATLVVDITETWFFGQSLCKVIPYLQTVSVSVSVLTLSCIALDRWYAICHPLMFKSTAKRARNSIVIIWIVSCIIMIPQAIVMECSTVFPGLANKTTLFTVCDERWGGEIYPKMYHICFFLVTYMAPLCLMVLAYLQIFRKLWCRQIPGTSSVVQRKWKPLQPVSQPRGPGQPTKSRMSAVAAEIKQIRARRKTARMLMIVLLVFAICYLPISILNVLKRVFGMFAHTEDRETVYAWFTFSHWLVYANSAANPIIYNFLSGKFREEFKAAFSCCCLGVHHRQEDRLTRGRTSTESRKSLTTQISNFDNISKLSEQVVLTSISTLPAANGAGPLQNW
- methodDescription: Human orexin 2 receptor radioligand binding ([3H]-EMPA competition)
- measurementContext: HEK293 cells stably expressing human orexin-2 receptor; [3H]-EMPA 5 nM final; read-out: OR-2 Ki
- Source text: […]
pKi: −log10 of the molar value.
# cutoff 6 applies to pKi; >= gives Met, < gives Not met

{"columns": ["molecule", "systemName", "classLabel"],
 "data": [
  ["O=C(c1ccccc1Br)N1CC[C@H]2CN(c3cnc4ccccc4n3)[C@H]2C1 [Example 13]", "human orexin-2 receptor (Homo sapiens (Human), UniProt O43614)", "Met"]
]}

Challenge: Can COc1cccc(OC)c1C(=O)N1CCC2CN(c3nccc(-c4ccccc4)n3)C2C1 (stereo not shown) [Example 15] be said to have pKi at or above 6?
Response given: Met

Challenge: Does the molecule Cc1ccnc(N2CC3CN(C(=O)c4ccccc4Br)CC32)n1 (stereo not shown) [Example 59] have recorded pKi that is 6 or more?
Response given: Not met

Challenge: Threshold query (pKi >= 6) on COc1ccc(-c2ncccn2)c(C(=O)N2CC[C@H]3CN(c4nc(C)cc(C)n4)[C@H]3C2)c1F [Example 156]
Response given: Met

Challenge: Can Cc1cnc(C)c(N2C[C@@H]3CCN(C(=O)c4ccccc4-n4nccn4)C[C@@H]32)n1 [Example 96] be said to have pKi at or above 6?
Response given: Met

Challenge: # bool: pKi of COc1ccccc1C(=O)N1CC2CN(c3nccc(-c4ccccc4)n3)C2C1 (stereo not shown) [Example 53] >= 6
Response given: Not met

Challenge: Exam item: decide whether the reported pKi for O=C(c1cc(F)ccc1-n1nccn1)N1CC[C@H]2CN(c3cc(NC4CC4)ncn3)[C@H]2C1 [Example 194] is at least 6.
Response given: Met

----------
- systemName: UniProt:O43613
- methodDescription: Human orexin 1 receptor radioligand binding ([3H]-SB674042 competition)
- measurementContext: CHO cells stably expressing human orexin 1 receptor; [3H]-SB674042 4 nM final; read-out: OR-1 Ki
outcomeMeasure: pKi
Quick note: pKi values are minus log10 of concentrations in mol/L.

{"columns": ["molecule", "systemName", "pKi"],
 "data": [
  ["COc1ccc(C(=O)N2CC[C@H]3CN(c4nc(C)cc(C)n4)[C@H]3C2)c(-n2nccn2)n1", "UniProt:O43613", 5.00],
  ["O=C(c1ccccc1-c1ccccc1)N1CCC2CN(c3nccc(-c4ccccc4)n3)C2C1 (stereo not shown)", "UniProt:O43613", 7.66],
  ["COc1ccc(-c2ncccn2)c(C(=O)N2CC[C@H]3CN(c4nc(C)cc(C)n4)[C@H]3C2)c1F", "UniProt:O43613", 6.07],
  ["COc1ccc(-n2nccn2)c(C(=O)N2CC[C@H]3CN(c4cc(N(C)C)ccn4)[C@H]3C2)c1", "UniProt:O43613", 5.00]
]}

Challenge: Any idea what pKi was measured for Cc1cccc(N2C[C@@H]3CCN(C(=O)c4cc(F)ccc4-n4nccn4)C[C@@H]32)n1 ?
Response given: 5.26

Challenge: May I ask what pKi has been recorded for Cc1cc(N2C[C@@H]3CCN(C(=O)c4c(F)cccc4-c4ncccn4)C[C@@H]32)nc(C(F)(F)F)n1 ?
Response given: 6.66

Challenge: Dear colleague, I am looking for the recorded pKi of the following molecule: Cc1cc(N2C[C@@H]3CCN(C(=O)c4ccccc4-n4nccn4)C[C@@H]32)nc(N(C)C)n1
Response given: 6.32

----------
- systemName: human orexin 1 receptor (Homo sapiens (Human))
- methodDescription: Human orexin 1 receptor radioligand binding ([3H]-SB674042 competition)
- measurementContext: CHO cells stably expressing human orexin 1 receptor; [3H]-SB674042 4 nM final; read-out: OR-1 Ki
outcomeMeasure: pKi
// returns pKi (minus log10 of molar concentration), number only

Worked cases, pKi given:
{"columns": ["entrySmiles", "pKi"],
 "data": [
  ["Cc1cc(C)nc(N2C[C@@H]3CCN(C(=O)c4cc(F)ccc4Br)C[C@@H]32)n1", 5.41],
  ["CN(C)c1ccnc(N2C[C@@H]3CCN(C(=O)c4cccc(F)c4-c4ncccn4)C[C@@H]32)c1", 5.00],
  ["Cc1cncc(N2C[C@@H]3CCN(C(=O)c4c(F)cccc4-n4nccn4)C[C@@H]32)n1", 5.05],
  ["O=C(c1ccccc1-c1cccnc1)N1CC[C@H]2CN(c3cnc4ccccc4n3)[C@H]2C1", 7.02],
  ["Cc1cc(C)nc(N2C[C@@H]3CCN(C(=O)c4nccnc4-c4ccccc4)C[C@@H]32)n1", 5.00]
]}

Challenge: Reported pKi for CN(C)c1ccnc(N2C[C@@H]3CCN(C(=O)c4cccc(F)c4-n4nccn4)C[C@@H]32)c1 : what is it?
Response given: 5.00

Challenge: # input compound: Cc1ccnc(N2C[C@@H]3CCN(C(=O)c4cc(F)ccc4-n4nccn4)C[C@@H]32)c1 ; wanted: its pKi
Response given: 5.00

Challenge: So what's the measured pKi for this one? Cc1nc(N)cc(N2C[C@@H]3CCN(C(=O)c4cc(F)ccc4-n4nccn4)C[C@@H]32)n1
Response given: 5.00

Challenge: Which pKi reading was recorded for the compound Cc1cccc(N2C[C@@H]3CCN(C(=O)c4c(F)cccc4-n4nccn4)C[C@@H]32)n1 ?
Response given: 5.38

Challenge: Looking for the measured pKi of Cc1nccnc1N1C[C@@H]2CCN(C(=O)c3ccccc3-n3nccn3)C[C@@H]21 , can you help?
Response given: 5.00

Challenge: What value of pKi has been reported for the following compound? Cc1cc(C)nc(N2C[C@H]3CCN(C(=O)c4ccccc4-c4ccccc4)C[C@H]32)n1
Response given: 5.42

Challenge: Sample COc1ccc(C(=O)N2CC[C@H]3CN(c4cc(N(C)C)ccn4)[C@H]3C2)c(-n2nccn2)c1 — what was its pKi?
Response given: 5.00

Challenge: I would be grateful if you could share the reported pKi for Cc1cnc(C)c(N2C[C@@H]3CCN(C(=O)c4ccccc4-n4nccn4)C[C@@H]32)n1 .
Response given: 5.23

Challenge: pKi for O=C(c1ccc(F)cc1-n1nccn1)N1CC[C@H]2CN(c3nc4cc(Cl)ccc4o3)[C@H]2C1 ?
Response given: 6.89

Challenge: Requested field: pKi. Item: Cc1cc(C)nc(N2C[C@@H]3CCN(C(=O)c4c(-c5ccccc5)noc4C)C[C@@H]32)n1
Response given: 5.00
